Test System: Gal(b1-3)GlcNAc6S
Test Method Notes: glycan array binding signal (z-score within array); higher = stronger binding
Measurement Conditions: glycan notation: IUPAC condensed, linker removed
Many of the other results were omitted from the sample, so the strongest signals are more common in it than they were.
Measured Metric: glycan array binding signal (z-score)

>  <Binder>
pilr alpha (protein) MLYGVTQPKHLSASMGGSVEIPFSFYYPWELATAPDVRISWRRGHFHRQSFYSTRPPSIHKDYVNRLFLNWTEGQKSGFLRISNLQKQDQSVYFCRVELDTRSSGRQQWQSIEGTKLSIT

>  <Result>
-0.425

$$$$

# next binder below
Query block: Return glycan array binding signal (z-score) (reported value) for this binder: AAL (Agrocybe aegerita), Q6WY08 (protein) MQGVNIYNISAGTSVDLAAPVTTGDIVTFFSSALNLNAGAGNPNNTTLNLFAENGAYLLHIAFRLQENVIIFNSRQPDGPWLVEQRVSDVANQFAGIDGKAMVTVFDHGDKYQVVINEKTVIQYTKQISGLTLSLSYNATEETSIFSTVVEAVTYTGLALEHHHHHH
Result block: -0.129
